Form field: growth inhibition (one value per entry).
- Assay Details: NCI Yeast Anticancer Drug Screen. Data for the rad50 strain (AID 155);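 note: 0% = growth of vehicle-only cultures of the same strain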
- Experimental Context: S. cerevisiae rad50 strain growth inhibition; at 50.0 µM; stronger effect = higher value
About 79,000 compounds went through this panel and 15% of them were active in at least one assay; those are over-represented in the sample as a whole.
Report only the number, with the unit % understood.

Solved cases (8 shown):
Compound: CC(C)(C)c1ccc2c(c1)C(C)(C)CCC2(C)C
growth inhibition (%): 12.8

Compound: CN(C)/N=C/c1cn(C)c(=O)n(C)c1=O
growth inhibition (%): 0.15

Compound: CC(C)OC(=O)NN(C)c1ccccc1
growth inhibition (%): 15.4

Compound: O=S(=O)(O)SCCNCCCCc1ccccc1
growth inhibition (%): -11.2

Compound: CCCSc1ccc([N+](=O)[O-])cc1[N+](=O)[O-]
growth inhibition (%): 31.8

Compound: CCCCCCCCCCCCCCCCOc1ccc(S(=O)(=O)NC(C)(C)C)cc1[N+](=O)[O-]
growth inhibition (%): 8.7

Compound: COCC1C(COC)C2CCC1C2(Cc1ccccc1)Cc1ccccc1 (stereo not given)
growth inhibition (%): 1.4

Compound: CC1CC(=O)Nc2ncnc(N)c21 (stereo not given)
growth inhibition (%): -25.1

Request: Fill in: growth inhibition of CSc1nc2c(nc(N)n2C2OCC(O)C(O)C2O)c(=O)[nH]1 (stereo not given) is ___
Response: -19.2

Request: Lookup CCCC1=C(c2ccc(OC)cc2)Cc2cc(OC)ccc21
Response: -14.9

###

- Assay Details: NCI Yeast Anticancer Drug Screen. Data for the mlh1 rad18 strain (AID 175)
- Experimental Context: S. cerevisiae mlh1 rad18 strain growth inhibition; at 50.0 µM
This is part of a sample that, as a whole, favours compounds with a hit. Of some 79,000 tested, about 15% had one in any assay. Calls of active or inactive are those of the source. No stated cut-off is given here; in the data, active means growth inhibition above about 70%; inactive means the rest.
API: response.call in active, inactive

Observe how each entry below is paired with its result.
Compound: COc1ccccc1-c1nc2ccccc2c(=O)[nH]1
Discrete Label: inactive
//
Compound: Cc1ccc(C)c(NC(=O)c2ccc([N+](=O)[O-])cc2)c1
Discrete Label: inactive
//
Compound: CCOC(=O)CCC(NC1=C(Cl)C(=O)c2ccccc2C1=O)C(=O)O (centres undefined)
Discrete Label: inactive
//
Compound: CC(OS(C)(=O)=O)C(C)OS(C)(=O)=O (centres undefined)
Discrete Label: inactive
//
Compound: Cc1ccc(OC/C=C/CS(=O)(=O)c2ccc(C)cc2)cc1
Discrete Label: inactive
//
Compound: COc1ccc(/C(C)=N/N=C(\C)c2ccc(OC)cc2)cc1
Discrete Label: inactive

Request: I'd appreciate the recorded outcome for NC(=O)c1csc(CCCCCCc2nc(C(N)=O)cs2)n1 from this test.
Response: inactive

###

- Assay Details: NCI Yeast Anticancer Drug Screen. Data for the mlh1 rad18 strain (AID 175)
- Experimental Context: S. cerevisiae mlh1 rad18 strain growth inhibition; at 50.0 µM; stronger effect = higher value
Compounds without any hit were thinned out: in the full panel of roughly 79,000, 15% have a hit.
Test Readout: growth inhibition (%)
Report only the number, with the unit % understood.

Solved cases (3 shown):
Compound: CCOC(=O)/C(=C\c1ccc(N(C)C)cc1)S(=O)(=O)C(F)(F)C(F)(F)C(F)(F)C(F)(F)F
growth inhibition, %: 15.2
--
Compound: CCCC(O)(Cc1ccccc1)c1ccccc1 (centres undefined)
growth inhibition, %: -14
--
Compound: COc1ccc(/C=C2\CCC/C(=C\c3ccc(O)c(CN4CCCCC4)c3)C2=O)cc1
growth inhibition, %: 91.2

Then there is this compound:
Request: Fill in: growth inhibition of CC(C)CNc1ncnc2c1cnn2C is ___
Response: -8.45

###

Form field: growth inhibition (one value per entry).
- Assay Details: NCI Yeast Anticancer Drug Screen. Data for the bub3 strain (AID 167)
- Experimental Context: S. cerevisiae bub3 mutant strain, at 50.0 µM, stronger effect = higher value
The panel holds about 79,000 compounds, 15% with a hit somewhere; the sample as a whole holds those more often.
Report only the number, with the unit % understood.

Solved cases (2 shown):
Compound: O=C(O)C1C2C=CC(O2)C1C(=O)Nc1ccccc1 (stereo unspecified)
Test Readout: growth inhibition
Quantitative Result: -19.4

Compound: Cc1c2occc2cc2c1oc(=O)c1cnccc12
Test Readout: growth inhibition
Quantitative Result: -4.95

Request: Fill in: growth inhibition of COc1cc2c(c(OC)c1OC)-c1ccc(OC)c(=O)cc1C(NC(=O)COc1ccccc1)CC2 (stereo unspecified) is ___
Response: 6.95

Request: Lookup CCOC(=O)C1(C#N)C(C#N)(C#N)C1(C)CC (stereo unspecified)
Response: 0.75

Request: Lookup CCC[CH2][Ge]([CH2]CCC)([CH2]CCC)[n]1ccc2ccccc21
Response: 45.9

Request: Lookup O=C1C=CC(=O)N1CCCCN1C(=O)C=CC1=O
Response: -14.4

Request: Lookup CC(=O)OC1OC(c2ccoc2)C[C@@]12C1CCC3O[C@]3(C)[C@]1(C)C[C@H](OC(C)=O)[C@H]2C (stereo partly specified)
Response: -32.1

Request: Lookup Cc1cccnc1Br
Response: -5.65

Request: Lookup COc1ccc(-c2cc(N3CCN(c4ccccc4)CC3)c(C#N)c(=O)o2)cc1
Response: -2.1

Request: Lookup O=C(NCCNCCO)N/N=C/c1ccccc1
Response: -39

Request: Lookup CC(=C\C=N\N(C)c1ccccc1)/C=C1\Cc2ccccc2C1=O
Response: -2.8

Request: Lookup C[N+](C)(C)CCOC(=O)/C=C/c1cnc[nH]1
Response: 6.4

###

- Assay Details: NCI Yeast Anticancer Drug Screen. Data for the mlh1 rad18 strain (AID 175)
- Experimental Context: S. cerevisiae mlh1 rad18 strain growth inhibition; at 50.0 µM; stronger effect = higher value
This is part of a sample that, as a whole, favours compounds with a hit. Of some 79,000 tested, about 15% had one in any assay.
Test Readout: growth inhibition (%)
Report only the number, with the unit % understood.

Solved cases (2 shown):
Compound: CC#CCC1CCC(OCC)=CC1=O (stereo not drawn)
growth inhibition (%): 17.1
//
Compound: Cc1occ(Br)c(=O)c1O
growth inhibition (%): 15.2

Request: Fill in: growth inhibition of Nc1nc2c(C(=O)NCc3cccs3)nnn2c2cccc(Cl)c12 is ___
Response: 7.05

###

- Assay Details: NCI Yeast Anticancer Drug Screen. Data for the mec2-1 strain (AID 157)
- Experimental Context: S. cerevisiae mec2-1 strain, at 50.0 µM, stronger effect = higher value
About 79,000 compounds went through this panel and 15% of them were active in at least one assay; those are over-represented in the sample as a whole.
Test Readout: growth inhibition (%)
Report only the number, with the unit % understood.

Solved cases (4 shown):
Compound: O=C(Nc1ccc(Cl)cc1C(=O)O)c1ccc([N+](=O)[O-])cc1
Unit String: %
growth inhibition: 18.2
//
Compound: C=CCNC(=O)CS(=O)(=O)c1ccc(C)cc1
Unit String: %
growth inhibition: -10.3
//
Compound: O=C(NC(=O)c1ccccc1O)c1ccccc1
Unit String: %
growth inhibition: 5.45
//
Compound: CCN(CC)N=Nc1ccc(S(N)(=O)=O)cc1
Unit String: %
growth inhibition: 12.6

Then there is this compound:
Request: Fill in: growth inhibition of CN(Cc1cnc2nc(N)nc(N)c2n1)c1ccc(C(=O)NC(CCC(=O)OC(C)(C)C)C(=O)O)cc1 (stereo not given) is ___
Response: 32.4

###

- Assay Details: NCI Yeast Anticancer Drug Screen. Data for the bub3 strain (AID 167)
- Experimental Context: S. cerevisiae bub3 mutant strain, at 50.0 µM, stronger effect = higher value
About 79,000 compounds went through this panel and 15% of them were active in at least one assay; those are over-represented in the sample as a whole. Active and inactive are the calls of the source. Rule as the data show it: active = growth inhibition above about 70%; inactive = the rest.
Form field: growth inhibition (one value per entry).

Solved cases (4 shown):
Compound: Cc1nc(C)c(N2CCN(C(=O)NC(CCC(=O)O)C(=O)O)CC2)c(=O)[nH]1 (stereo not given)
growth inhibition: -1.25% (inactive)

Compound: Cc1cc2cccc(C)c2[nH]1
growth inhibition: 4.6% (inactive)

Compound: NC(N)=NC(N)=Nc1ccccc1Br
growth inhibition: 7.05% (inactive)

Compound: Cc1cc(C(C)(C)C)cc(C)c1[N+](=O)[O-]
growth inhibition: -7.1% (inactive)

Then there is this compound:
Request: Fill in: growth inhibition of COc1cccc(C=Nc2ccc(N(C)C)cc2)c1O.COc1cccc(C=Nc2ccc(N(C)C)cc2)c1O.[Co] is ___
Response: 8.25% (inactive)

###

- Assay Details: NCI Yeast Anticancer Drug Screen. Data for the mlh1 rad18 strain (AID 175)
- Experimental Context: S. cerevisiae mlh1 rad18 strain growth inhibition; at 50.0 µM; stronger effect = higher value
- Method: Growth inhibition of yeast strains with defined genetic alterations is measured as a screen for potential anti-cancer activity. Selected strains with alterations in DNA damage repair or cell cycle control were exposed to compounds and growth inhibition was measured relative to vehicle treated controls. The strain used in this assay is mlh1 rad18
The panel holds about 79,000 compounds, 15% with a hit somewhere; the sample as a whole holds those more often.
Test Readout: growth inhibition (%)
Report only the number, with the unit % understood.

Compound: O=C(c1ccccc1)[C@@H]1C[C@H](Sc2ccccc2)c2cc(Cl)ccc2N1
Unit String: %
growth inhibition: -3.5

Compound: Cc1ccc2[nH]c(=O)[nH]c2c1
Unit String: %
growth inhibition: -22.4

Compound: COc1ccc(CCCCl)c(C2=NCCc3cc(OC)c(OC)cc32)c1
Unit String: %
growth inhibition: 0.9

Compound: C[Si](C)(C)c1ccc(CC2(Cc3ccc([Si](C)(C)C)cc3)CCNC2)cc1
Unit String: %
growth inhibition: -25.9

Compound: O=C1C(=Cc2ccco2)C(=O)C2CCCCC12 (stereo not given)
Unit String: %
growth inhibition: 13.6

Compound: COc1ccc2c(=O)cc(-c3ccncc3)oc2c1OC
Unit String: %
growth inhibition: 31.2

Compound: O=[N+]([O-])c1ccc(Oc2c3ccccc3nc3ccccc23)cc1
Unit String: %
growth inhibition: 14.4

Compound: COc1cccc(C=Nc2ccc(N(C)C)cc2)c1O.COc1cccc(C=Nc2ccc(N(C)C)cc2)c1O.[Co]
Unit String: %
growth inhibition: -2.3

Compound: CCCCCCOC(=O)C(C)(O)C(Cl)c1ccccc1 (stereo not given)
Unit String: %
growth inhibition: -10.2

Compound: CC(C)Oc1ccc(CCOC(=O)Nc2cccc3ccccc23)cc1
Unit String: %
growth inhibition: 9.5

Request: Fill in: growth inhibition of O=C1c2ccccc2OCC1/C=N/O (stereo not given) is ___
Response: -10.8

Request: Lookup O=C(O)CCCCCN1C(=O)c2cccc([N+](=O)[O-])c2C1=O
Response: 12.7

Request: Lookup CCOC(=O)C(Cc1ccc(Cl)cc1)(Cc1ccc(Cl)cc1)C(=O)OCC
Response: -10.7

These data points were gathered from PubChem BioAssay (NCI).
